Reference source for all entries: PubChem BioAssay AID651820

test: qHTS Assay for Inhibitors of Hepatitis C Virus (HCV); conditions: Huh7.5.1 HCVcc-Cre infection, luciferase reporter, 44 h; series mostly up to 41.8 µM
About 12,000 (3.5%) of roughly 340,000 compounds were called active. Inconclusive results (about 18%) are left out. Calls follow the shape of the dose curve; as a rule, active = well fitted inhibition curve with a large enough effect; inconclusive = small, poorly fitted or top-dose-only effect, or another doubt; inactive = no such curve, though single readings can be large or run the other way. The list comes from a sample in which actives are over-represented; it also holds close analogues and randomly drawn compounds.
Please reply with one of these outcomes: T = active, F = inactive

Before answering, review these 5 worked examples.
Recorded test outcome, item COc1ccccc1C(c1nnnn1C(C)(C)C)N1CCN(Cc2ccccc2)CC1 (stereo not drawn)
F

Recorded test outcome, item Cc1cnc(NC(=O)c2ccccn2)s1
T

Recorded test outcome, item COc1ccc(-c2c(C#Cc3ccsc3)c3cc(-c4ccc(CN5CCOCC5)cc4)ccc3n2C)cc1
F

Recorded test outcome, item CCOC(=O)c1c(NC(=O)CSc2cn(CC)c3ccccc23)sc2c1CCC2
F

Recorded test outcome, item O=C(COC(=O)C1(c2ccc(F)cc2)CCCC1)N1CCNC1=O
F

Further cases:
Recorded test outcome, item COc1cc(OC)cc(C(=O)NNC(=O)CCOc2ccccc2OC)c1
F

Recorded test outcome, item CCC(C)c1ccc(NC(=O)COC(=O)C2CCCC2)cc1 (stereo not drawn)
F
